- System: KM12 colon
- assay remarks: NCI tumour cell line growth inhibition, 48 h
result type: TGI

Cn1c(=O)c2c(nc(NCCCCl)n2CC(=O)NCCCCl)n(C)c1=O; > 100 µM
CC(=O)OC1CC2OC(Cc3ccccc32)O1 (stereo unspecified); > 100 µM
Nc1nc(Cl)cc(NCC2(CO)COC2)n1; > 100 µM
COC(=O)C(=O)C(C(=O)C(=O)Nc1ccc(C)cc1C)c1nc2ccccc2[nH]c1=O (stereo unspecified); > 100 µM
C=C(C)[C@@H](C(=O)OC)N1C(=O)c2ccccc2C1=O; > 100 µM
N#C/C(C(=S)Nc1ccccc1)=C1/NN=C2c3ccccc3C(=O)NN21; 58.4 µM

Incoming: Please report the measured TGI for COc1cc(Cc2cc(OC)c(OC)c(OC)c2)ccc1O tested on KM12 colon.
Outgoing: > 100 µM

Incoming: Look up and report TGI, with KM12 colon as system, for CC(=O)c1cccc2c1CC1(C2)Cc2ccc3c(c2C1=O)CCC3 (stereo unspecified)
Outgoing: > 100 µM

Incoming: Report value only: TGI, KM12 colon, COc1ccc(-n2cc(-c3cc(OC)c(OC)c(OC)c3)[nH]c2=S)cc1OC
Outgoing: > 100 µM

Incoming: State recorded TGI with KM12 colon, entry CC(C)CSc1nc(Nc2ccccc2)c(C#N)c(-c2ccc(F)cc2)n1 , no comment.
Outgoing: > 100 µM

Incoming: State the measured TGI (KM12 colon) of Clc1ccc2c(NCCCCN=Cc3ccccc3)ccnc2c1
Outgoing: 20.8 µM
